molecular target: human mGluR2 receptor (Homo sapiens); construct: expressed in transfected cells; host or cells: CHO cells (membrane preparation); test: [35S]GTPγS binding assay (GTPγS-PAM): positive allosteric modulation in presence of glutamate at EC25, membranes from transfected CHO cells; assay type: biochemical; conditions: in presence of mGluR2 agonist glutamate at predetermined EC25 concentration, averages of duplicate values of 11-concentration response curves, read-out: GTPgS - hR2 PAM pEC50 (converted)
Sequence (Q14416 19-872): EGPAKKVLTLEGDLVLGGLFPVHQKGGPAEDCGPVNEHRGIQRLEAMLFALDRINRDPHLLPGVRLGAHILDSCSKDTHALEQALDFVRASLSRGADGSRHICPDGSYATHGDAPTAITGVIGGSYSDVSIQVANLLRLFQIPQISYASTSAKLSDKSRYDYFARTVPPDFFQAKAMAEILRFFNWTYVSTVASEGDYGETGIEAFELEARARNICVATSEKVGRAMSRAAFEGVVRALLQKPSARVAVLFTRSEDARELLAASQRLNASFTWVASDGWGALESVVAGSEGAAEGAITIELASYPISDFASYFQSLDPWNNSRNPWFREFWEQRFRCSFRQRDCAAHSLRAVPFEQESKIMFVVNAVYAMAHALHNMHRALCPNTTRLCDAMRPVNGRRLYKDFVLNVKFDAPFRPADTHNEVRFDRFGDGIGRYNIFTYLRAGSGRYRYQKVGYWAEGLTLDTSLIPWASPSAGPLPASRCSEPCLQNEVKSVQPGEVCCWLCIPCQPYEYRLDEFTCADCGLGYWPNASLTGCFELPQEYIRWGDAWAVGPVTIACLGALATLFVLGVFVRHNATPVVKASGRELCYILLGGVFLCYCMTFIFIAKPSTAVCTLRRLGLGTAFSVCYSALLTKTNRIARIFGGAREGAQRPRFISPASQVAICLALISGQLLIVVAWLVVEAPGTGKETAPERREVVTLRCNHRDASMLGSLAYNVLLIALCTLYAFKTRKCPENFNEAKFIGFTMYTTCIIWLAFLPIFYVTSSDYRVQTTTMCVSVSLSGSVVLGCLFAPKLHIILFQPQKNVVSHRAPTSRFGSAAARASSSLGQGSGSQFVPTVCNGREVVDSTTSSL
METRIC NAME: EC50 (nM)

[[record]]
compound = "CC(C)CCn1ccc(OC2Cc3ccccc3C2)c(C#N)c1=O [1-288]"
value_reported = 1000


I: CC(C)CCn1ccc(-c2ccc(Br)c(Br)c2)c(C#N)c1=O [1-092]
II: COc1ccc(Oc2ccn(CCC(C)C)c(=O)c2C#N)cc1 [1-282]
III: CC(C)CCn1ccc(-c2ccc(Cl)cc2)c(C#N)c1=O [1-091]
Query :: Endpoint returns the given compounds ordered by ascending EC50. Labels, ranked as asked.
Result :: I, II, III
(I: 63.1 nM, II: 794 nM, III: 1580 nM)
